Reference for the values: patent US20260125378A2

Biological target: Full length DGKζ (in-house protein M1-V929) (Homo sapiens, UniProt Q13574)
Construct: His (N); TEV site (N)
Sequence (Q13574 1-929 isoform Q13574-4): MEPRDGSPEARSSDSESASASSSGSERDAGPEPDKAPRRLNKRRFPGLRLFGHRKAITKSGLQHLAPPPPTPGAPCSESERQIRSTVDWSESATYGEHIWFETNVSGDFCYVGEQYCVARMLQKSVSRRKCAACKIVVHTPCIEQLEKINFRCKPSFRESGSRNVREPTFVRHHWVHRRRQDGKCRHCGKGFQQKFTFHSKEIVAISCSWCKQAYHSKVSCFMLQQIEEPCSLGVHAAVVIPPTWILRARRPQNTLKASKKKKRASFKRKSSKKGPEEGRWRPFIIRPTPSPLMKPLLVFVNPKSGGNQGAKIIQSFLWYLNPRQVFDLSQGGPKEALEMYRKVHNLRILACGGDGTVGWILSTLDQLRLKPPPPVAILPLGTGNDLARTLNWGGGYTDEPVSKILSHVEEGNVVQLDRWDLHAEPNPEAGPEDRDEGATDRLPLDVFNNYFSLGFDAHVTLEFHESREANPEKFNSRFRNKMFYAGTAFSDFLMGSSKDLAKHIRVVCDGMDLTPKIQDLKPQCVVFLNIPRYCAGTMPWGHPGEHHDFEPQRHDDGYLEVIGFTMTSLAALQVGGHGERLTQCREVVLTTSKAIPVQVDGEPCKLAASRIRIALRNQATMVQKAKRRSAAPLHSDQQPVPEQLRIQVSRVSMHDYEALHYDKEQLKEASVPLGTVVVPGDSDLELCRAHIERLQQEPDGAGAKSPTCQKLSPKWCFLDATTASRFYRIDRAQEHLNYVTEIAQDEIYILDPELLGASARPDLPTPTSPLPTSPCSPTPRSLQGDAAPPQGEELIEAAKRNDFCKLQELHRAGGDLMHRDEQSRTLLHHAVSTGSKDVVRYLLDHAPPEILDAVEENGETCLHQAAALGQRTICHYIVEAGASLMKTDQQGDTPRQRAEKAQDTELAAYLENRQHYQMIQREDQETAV
Test: Biochemical DGK IC50 assay (ADP-Glo, lipid micelle substrate), DGKζ
Conditions: 1 hour preincubation, 1 hour reaction, room temperature
pIC50: −log10 of the molar value.
MEASURED_ENDPOINT: pIC50

* CCn1c(CC#N)nc2c(N3C[C@@H](C)N(C(C)c4ccc5c(c4)OC(F)(F)O5)C[C@@H]3C)nc(=O)n(C)c21 (stereo partly drawn) [Compound A99] | 6.89

(P) CCn1c(CC#N)nc2c(N3C[C@@H](C)N(C(C)c4ccc5c(c4)C(C)(C)N(C)C5=O)C[C@@H]3C)nc(=O)n(C)c21 (stereo partly drawn)
(Q) CC(OC(F)F)c1cc(F)ccc1C(C)N1C[C@H](C)N(c2nc(=O)n(C)c3c2nc(CC#N)n3C)C[C@H]1C (single isomer, unassigned) [Compound A29b]
# input Parameter check: reported pIC50 is higher for which label, P or Q ? Provide the label of your selected option as the answer.
# output Q

----------
Biological target: Full length DGKζ (in-house protein M1-V929) (Homo sapiens)
Construct: His (N); TEV site (N)
Assay: Biochemical DGK IC50 assay (ADP-Glo, lipid micelle substrate), DGKζ
Settings: 1 hour preincubation, 1 hour reaction, room temperature
MEASURED_ENDPOINT: IC50 (nM)

• CC(c1ccc2c(c1)OCCO2)N1C[C@H](C)N(c2c(F)c(=O)n(C)c3c2nc(CC#N)n3C)C[C@H]1C (single isomer, unassigned) [Compound A18b] = 32

(a) CCn1c(CC#N)nc2c(N3C[C@@H](C)N(C(C)c4ccnc(C(=O)NC)c4)C[C@@H]3C)nc(=O)n(C)c21 (stereo partly drawn)
(b) CCn1c(CC#N)nc2c(N3C[C@@H](C)N(C(C)c4ccc5c(c4)C(=O)N(C)CO5)C[C@@H]3C)nc(=O)n(C)c21 (stereo partly drawn)
(c) CCn1c(CC#N)nc2c(N3C[C@@H](C)N(C(C)c4ccc5c(c4)OC(C)(C)CC5=O)C[C@@H]3C)nc(=O)n(C)c21 (stereo partly drawn)
(d) CCc1nc2cc(C(C)N3C[C@H](C)N(c4nc(=O)n(C)c5c4nc(CC#N)n5CC)C[C@H]3C)ccc2s1 (mixture of isomers) [Compound A95]
# input Hello, I need these entries ordered by IC50, highest reading first. Thanks! Dear reader, please state the labels in the requested order.
# output a, b, d, c

----------
Molecular target: Full length DGKα (D21-10BG, SignalChem) (Homo sapiens, UniProt P23743)
Sequence (P23743 whole entry): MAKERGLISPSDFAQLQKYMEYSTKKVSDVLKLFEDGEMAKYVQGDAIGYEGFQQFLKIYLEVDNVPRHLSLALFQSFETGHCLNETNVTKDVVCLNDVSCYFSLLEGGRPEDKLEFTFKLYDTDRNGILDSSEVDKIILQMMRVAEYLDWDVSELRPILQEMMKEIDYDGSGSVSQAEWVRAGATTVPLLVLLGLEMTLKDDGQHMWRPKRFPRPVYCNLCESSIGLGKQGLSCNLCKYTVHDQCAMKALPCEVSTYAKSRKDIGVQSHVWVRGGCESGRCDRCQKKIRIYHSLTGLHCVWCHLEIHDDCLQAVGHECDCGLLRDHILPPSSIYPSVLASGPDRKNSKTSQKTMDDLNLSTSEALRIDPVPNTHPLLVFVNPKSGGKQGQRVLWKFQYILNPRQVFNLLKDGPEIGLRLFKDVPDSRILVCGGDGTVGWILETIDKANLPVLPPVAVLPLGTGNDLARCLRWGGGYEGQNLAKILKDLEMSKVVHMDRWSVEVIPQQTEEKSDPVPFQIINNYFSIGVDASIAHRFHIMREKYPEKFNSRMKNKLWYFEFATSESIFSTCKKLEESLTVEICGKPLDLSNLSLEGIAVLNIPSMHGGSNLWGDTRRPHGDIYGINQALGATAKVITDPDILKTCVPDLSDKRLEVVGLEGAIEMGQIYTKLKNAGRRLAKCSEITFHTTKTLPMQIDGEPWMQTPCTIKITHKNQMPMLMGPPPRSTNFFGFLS
pIC50: −log10 of the molar value.
MEASURED_ENDPOINT: pIC50

* CC[C@@H]1CN(c2nc(=O)n(C)c3c2nc(CC#N)n3CC)[C@@H](C)CN1C(C)c1ccc2c(n1)OC(C)(C)CO2 (mixture of isomers) [Compound A158] | 3.91

(P) CCn1c(CC#N)nc2c(N3C[C@@H](C)N(C(C)c4cccc(C(F)(F)F)n4)C[C@@H]3C)nc(=O)n(C)c21 (single isomer, unassigned) [Compound A118b]
(Q) CC(c1ccc2c(c1)OC(C)(C)CO2)N1C[C@H](C)N(c2nc(=O)n(C)c3c2nc(CC#N)n3C)C[C@H]1C (single isomer, unassigned) [Compound A59a]
(R) CCc1nc2cc(C(C)N3C[C@H](C)N(c4nc(=O)n(C)c5c4nc(CC#N)n5CC)C[C@H]3C)ccc2s1 (single isomer, unassigned) [Compound A95b]
(S) Cc1ccc(C(C)N2C[C@H](C)N(c3cc(=O)n(C)c4c3nc(CC#N)n4C)C[C@H]2C)cc1 (single isomer, unassigned) [Compound A5b]
# input Please list these in order of increasing pIC50. Thank you! Dear reader, please state the labels in the requested order.
# output R, P, Q, S
